B1: KLHL20 (parent)
chain: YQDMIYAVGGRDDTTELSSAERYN

Variants of: B1
Assay: protein stability index of a GFP-peptide fusion (GPS, HEK-293T) (PSI 1-6); higher = more stable;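 further: lentivirally expressed fusions sorted by FACS into six bins by GFP to DsRed ratio, PSI derived from sequencing read proportions per bin multiplied by bin number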
Conditions: c terminus: a fixed tail appended
Would you mind labelling by protein stability index? At or over 2 is condition met, under is condition not met.

>  <Variant Code>
R11N

>  <Class Assignment>
condition met

$$$$
>  <Variant Code>
A7S

>  <Class Assignment>
condition met

$$$$
>  <Variant Code>
A7W

>  <Class Assignment>
condition met

$$$$
>  <Variant Code>
D3H

>  <Class Assignment>
condition met

$$$$
>  <Variant Code>
E21G

>  <Class Assignment>
condition not met

$$$$
>  <Variant Code>
R11Q

>  <Class Assignment>
condition met

$$$$
>  <Variant Code>
T15F

>  <Class Assignment>
condition met

$$$$
>  <Variant Code>
Y1T

>  <Class Assignment>
condition met

$$$$
>  <Variant Code>
M4G

>  <Class Assignment>
condition met

$$$$
>  <Variant Code>
A20W

>  <Class Assignment>
condition not met

$$$$
>  <Variant Code>
D13L

>  <Class Assignment>
condition met

$$$$
>  <Variant Code>
G10I

>  <Class Assignment>
condition not met

$$$$
>  <Variant Code>
L17M

>  <Class Assignment>
condition met

$$$$
>  <Variant Code>
V8M

>  <Class Assignment>
condition not met

$$$$
>  <Variant Code>
A7P

>  <Class Assignment>
condition met

$$$$
